target-or-test-system: T1, hu-IL-36γ (human IL-36γ, N-terminally truncated active form S18-D169) (human, UniProt Q9NZH8 18-169)
T1 construct: Purification tag cleaved off; Biotinylated where captured; also called hu-IL-36g
T1 sequence: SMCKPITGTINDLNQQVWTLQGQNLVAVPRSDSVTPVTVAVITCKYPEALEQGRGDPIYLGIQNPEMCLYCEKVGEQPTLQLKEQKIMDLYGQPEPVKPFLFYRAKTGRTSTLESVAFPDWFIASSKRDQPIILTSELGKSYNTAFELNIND
assay-notes: SPR (Biacore 8K), biotinylated hu-IL-36 captured on CAP chip, Fab injected, 37°C
metric-name: koff (s⁻¹)
Give the value, in units of s⁻¹, as a plain number.

The recorded koff for entry mAb2.10 Fab (Fab, V domains shown, Recombinant Fab with 8xHis tag (Expi293F)) VH: ELQLQESGPGLVKPSETLSLTCTVSGGSISDSSYYWGWIRQPPGKGLEWIGSIYYTGETYYAPSLKSRVTISVDTSKNQFSLKLSSVTAADTAVYYCARVRYGVGVPRHFDPWGQGTLVTVSS VL: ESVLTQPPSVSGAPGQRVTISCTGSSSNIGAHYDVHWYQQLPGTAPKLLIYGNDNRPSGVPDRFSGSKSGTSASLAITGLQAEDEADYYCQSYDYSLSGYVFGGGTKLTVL equals 0.00018

Just so you know, measured koff for mAb2.12 Fab (Fab, V domains shown, Recombinant Fab with 8xHis tag (Expi293F)) VH: ELQLQESGPGLVKPSETLSLTCTVSGGSISESSYYWGWIRQPPGKGLEWIGSIYYTGETYYAPSLKSRVTISVDTSKNQFSLKLSSVTAADTAVYYCARVKYGVGVPRYFDPWGQGTLVTVSS VL: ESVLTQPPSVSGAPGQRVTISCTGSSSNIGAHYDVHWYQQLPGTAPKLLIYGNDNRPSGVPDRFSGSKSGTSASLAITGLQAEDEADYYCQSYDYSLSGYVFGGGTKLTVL came out at 0.000503

// koff value for mAb2.9 Fab (Fab, V domains shown, Recombinant Fab with 8xHis tag (Expi293F)) VH: ELQLQESGPGLVKPSETLSLTCTVSGGSISDSSYYWGWIRQPPGKGLEWIGSIYYTGETYYAPSLKSRVTISVDTSKNQFSLKLSSVTAADTAVYYCARVKYGVGVPRYFDPWGQGTLVTVSS VL: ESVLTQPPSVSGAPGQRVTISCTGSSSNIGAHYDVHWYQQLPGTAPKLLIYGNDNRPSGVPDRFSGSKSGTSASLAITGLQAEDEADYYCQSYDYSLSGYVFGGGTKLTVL : 0.000565
